Test system: XF 498 CNS
Test: NCI tumour cell line growth inhibition, 48 h
# TGI per record follows

As a guide, the following entries are already answered.
molecule	TGI
O=C(Nc1nc2ncn(CCI)c2c(=O)[nH]1)c1ccccc1	> 61.2 µM
O=C(O/N=C1/CCCC/C1=C\c1ccccc1)c1ccccc1	> 100 µM

# evaluate next
Given CC1OC(n2cc(F)c(=O)[nH]c2=O)C=CC1O (stereo not drawn) , respond with its TGI.
> 100 µM

* * *

System: DLD-1 colon
Test: NCI tumour cell line growth inhibition, 48 h
recordedMetric: TGI (µM)
Hi! Could you send only the number? It should be in µM, unit omitted.

compound	unitsText	TGI
C=C(C=O)[C@@H]1C2OC(=O)C(=C)[C@@H]2CC(O)[C@@]1(C)CC (stereo not given in full)	µM	9.7

# evaluate next
Given CC(=O)OC1CCC2(C)C3CCC4(C)C(c5ccc(=O)oc5)CC5OC54C3CCC2(O)C1 (stereo not given) , respond with its TGI.
1.57

* * *

Tested on: SF-295 CNS
Assay: NCI tumour cell line growth inhibition, 48 h
recordedMetric: TGI

molecule	TGI
Nc1nc(N)c2[nH]c(CNc3ccc(C(=O)O)cc3)nc2n1	> 100 µM
Cc1ccc(SC(C)/C=C/NNC2=NC(c3ccccc3)C(c3ccccc3)=NN2)cc1 (stereo not drawn)	> 100 µM
O=C(NCCCCCCNC(=O)c1cccc2ccccc12)Nc1cccc2ccccc12	> 100 µM
CCC[CH2][Sn]([CH2]CCC)([CH2]CCC)[O]C(=O)CC	0.746 µM
NNC(N)Nc1ccccc1 (stereo not drawn)	> 100 µM

Given CNC(=S)N(C)C(=S)Nn1c(=O)c(C)nn(C)c1=S , respond with its TGI.
> 100 µM

Given S=C(N/N=C/c1ccco1)NC12CC3CC(CC(C3)C1)C2 , respond with its TGI.
> 100 µM

Given Clc1coc2nc3ccccc3c(Nc3ccc4c(c3)OCO4)c12 , respond with its TGI.
4.42 µM

Given Cc1cc(N(CCC#N)CCC#N)ccc1/C(N=Nc1ccc([N+](=O)[O-])cc1)=N\NC(=O)c1cc(Cl)ccc1C(=O)c1ccccc1 , respond with its TGI.
> 100 µM

* * *

# TGI per record follows
Test system: OVCAR-3 ovarian
Test: NCI tumour cell line growth inhibition, 48 h

Given OCCN1CN(CCO)CN(c2nc(N3CN(CCO)CN(CCO)C3)nc(N3CN(CCO)CN(CCO)C3)n2)C1 , respond with its TGI.
6.3 µg/mL

Given O=[N+]([O-])c1nccn1CC(O)c1ccc(F)cc1 (stereo not drawn) , respond with its TGI.
> 100 µM

Given O=C(c1ccc(O)cc1)C1c2c3c(cc(O)c2C(c2ccc(O)cc2)C1c1cc(O)cc(O)c1)OC(c1ccc(O)cc1)C3c1cc2c(cc1O)OC(c1ccc(O)cc1)C2c1cc(O)cc(O)c1 (stereo not drawn) , respond with its TGI.
> 12.5 µM

Given O=C(O)CNc1cc(-c2ccccc2)nc(NCC(=O)O)n1 , respond with its TGI.
> 100 µM

Given COCCOCc1nc(C#N)c(N)o1 , respond with its TGI.
> 100 µM

Given S=C(c1c[nH]c2ccccc12)N1CCOCC1 , respond with its TGI.
> 100 µM

Given COC(=O)C(C)(NC(=O)C(CC(=O)OC(C)(C)C)NC(=O)OC(C)(C)C)c1ccccc1 (stereo not drawn) , respond with its TGI.
> 100 µM

Given CCC(=O)NC(Nc1cccc(F)c1C)(C(F)(F)F)C(F)(F)F , respond with its TGI.
> 100 µM

Where do these numbers come from? They come from PubChem BioAssay (NCI).
